# System: Methicillin resistant S. aureus ATCC 33591
# assay name: MIC determination, MRSA
# Format: cell-based, Staphylococcus aureus
# condition parameters: MRSA ATCC 33591, 24 h

- compound: "CC(O)C1ON(CC2CCCCC2)C(C(=O)NCCc2c[nH]c3ccccc23)C1CO (centres unmarked)"
  assayed target: "Methicillin resistant S. aureus ATCC 33591"
  MIC MRSA: "* (the MIC is >90 μg/mL)"
- compound: "CC(O)C1ON(Cc2ccc(C#Cc3ccc(C(=O)O)cc3)cc2)C(C(=O)NCCc2c[nH]c3ccccc23)C1CO (centres unmarked)"
  assayed target: "Methicillin resistant S. aureus ATCC 33591"
  MIC MRSA: "* (the MIC is >90 μg/mL)"
